# Protocol Summary: in vitro
# Run Conditions: human, hela cells, % viability
Please go through the items and note down their viability at 28.5 h, 10 µM.
Number only, in %; omit the unit.

Item COc1ccccc1C(=O)N1CCC(C(=O)N(C)C(c2ccccc2)c2ncccc2C)CC1 (stereo not shown) : provide viability at 28.5 h, 10 µM
75.4

Annotate the compound Nc1ccn(C2CC(O)C(CO)O2)c(=O)n1 (stereo not shown) with its measured viability at 28.5 h, 10 µM.
95.4

Give me measured viability at 28.5 h, 10 µM, please, for this compound: O=C(Nc1ccc2ncccc2c1)c1ccc(F)c(F)c1
78.5

For the compound CCOC(=O)c1c(NC(=O)c2nc3ncccn3n2)sc(C)c1C , report viability at 28.5 h, 10 µM.
114

Kindly indicate its recorded viability at 28.5 h, 10 µM. Item: O=C(O)c1ccc(CNCCc2ccccc2)cc1
101

Return value of viability at 28.5 h, 10 µM for input COc1cc(OC)c(NC(=O)C(C)Oc2cccc(C)c2)cc1Cl (stereo not shown) , no commentary.
107

Consider the compound Cc1c(Cl)c([N+](=O)[O-])nn1CCCC(=O)Nc1cc(Br)ccc1O and give its recorded viability at 28.5 h, 10 µM.
93.1

Fill in reported viability at 28.5 h, 10 µM for this entry: CN1C[C@@H](NC(=O)Nc2ccccc2)C[C@H]1c1nc(-c2cccnc2)no1
104

Give viability at 28.5 h, 10 µM for CCNC(=O)c1cc2c(=O)n3ccccc3nc2n1C
104

Entry CCN1CCN(S(=O)(=O)c2cccc([N+](=O)[O-])c2)CC1 needs its viability at 28.5 h, 10 µM filled in; supply it.
83.8

Consider the compound CCCSc1ncc(Cl)c(C(=O)Nc2ccc(C(=O)OC)cc2)n1 and give its recorded viability at 28.5 h, 10 µM.
102

Please report the measured viability at 28.5 h, 10 µM for CCn1cc(NC(=O)CC(C)(O)c2ccccc2)ccc1=O (stereo not shown)
91.7

Please supply the value of reported viability at 28.5 h, 10 µM for the item CCCn1cc(NC(=O)C2(c3ccccc3)CCOCC2)ccc1=O
90.1

# return recorded viability at 28.5 h, 10 µM for input CC1CCC(C(N)=O)CN1C(=O)c1cc(Br)c[nH]1 (stereo not shown)
94

Return value of viability at 28.5 h, 10 µM for input CC(=O)Nc1ccc(F)c(NC(=O)NCCC2CCCN2C)c1 (stereo not shown) , no commentary.
101

Determine its reported viability at 28.5 h, 10 µM: CN(C)CCCNC(=S)NC(=O)c1ccccc1
117

Give the value of viability at 28.5 h, 10 µM reported for the following: Cc1cc(Sc2nc[nH]n2)c2c(Cl)ccc(Cl)c2n1
109

State its viability at 28.5 h, 10 µM: CCn1c(CN2CCCC2c2nc(N(C)C)ncc2-c2cccc(F)c2)nc2ccccc21 (stereo not shown)
102

Provide only the value of recorded viability at 28.5 h, 10 µM for CC(OC(=O)N1CCN(c2ccccc2)CC1)c1ccccc1 (stereo not shown)
104

---

# Protocol Summary: in vitro
# Run Conditions: human, hela cells, % viability
Metric Name: viability at 28.5 h, 10 µM
# do not omit the unit; it follows the number

Tell me measured viability at 28.5 h, 10 µM for CC(Sc1ccc(Cl)cc1)C(=O)Nc1ccc(S(=O)(=O)Nc2ccc(Cl)cc2)cc1 (stereo not drawn) please.
97.9%

Look up viability at 28.5 h, 10 µM of CSCC(O)Cn1nc(O)cc(C)c1=O (stereo not drawn) and report it.
105%

Look up and state reported viability at 28.5 h, 10 µM for CCCC/C=C/c1cnc(N)c(-c2ccc(CCC(=O)O)cc2)n1
95.5%
